Data origin: patent US11053204B2

Test system: giant foxtail (Setaria faberii)
procedureText: Test A postemergence, visual injury rating
Format: in vivo
assaySetup: 125 g ai/ha, 0 is no effect, 100 is complete control
endpointName: Foxtail, Giant plant response rating (0 to 100 scale)
Give the figure by itself; no unit, no explanation.

# count of solved cases: 5
[[record]]
smilesstructure = "N#Cc1ccc(Oc2ncc(Cl)cn2)c(C(=O)OCCC(F)(F)F)c1"
assayedtarget = "giant foxtail (Setaria faberii)"
valuemeasured = 0

[[record]]
smilesstructure = "O=C(OCCCl)c1c(Br)cccc1Oc1ncc(Cl)cn1"
assayedtarget = "giant foxtail (Setaria faberii)"
valuemeasured = 40

[[record]]
smilesstructure = "CC(C)COC(=O)c1c(Br)cccc1Oc1ncc(Cl)cn1"
assayedtarget = "giant foxtail (Setaria faberii)"
valuemeasured = 60

[[record]]
smilesstructure = "N#CCOC(=O)c1c(Br)cccc1Oc1ncc(Cl)cn1"
assayedtarget = "giant foxtail (Setaria faberii)"
valuemeasured = 10

[[record]]
smilesstructure = "CC(C)(C)OC(=O)c1c(F)cccc1Oc1ncc(Cl)cn1"
assayedtarget = "giant foxtail (Setaria faberii)"
valuemeasured = 0


In plain terms, "O=C(OCC(F)(F)F)c1c(F)cccc1Oc1ncc(Cl)cn1" has a documented Foxtail, Giant plant response rating (0 to 100 scale) of 0

In plain terms, "O=C(CCCCC(F)(F)F)c1c(Br)cccc1Oc1ncc(Cl)cn1" has a documented Foxtail, Giant plant response rating (0 to 100 scale) of 100

In plain terms, "O=C(OCC(F)(F)C(F)(F)F)c1c(F)cccc1Oc1ncc(Cl)cn1" has a documented Foxtail, Giant plant response rating (0 to 100 scale) of 0

In plain terms, "C#CCCOC(=O)c1c(Br)cccc1Oc1ncc(Cl)cn1" has a documented Foxtail, Giant plant response rating (0 to 100 scale) of 90

###

Tested on: corn (Zea mays)
procedureText: Test A postemergence, visual injury rating
Format: in vivo
assaySetup: Zea mays, post-emergence, 240 h, 125 g ai/ha, 0 is no effect, 100 is complete control, read-out: Corn plant response rating (0 to 100 scale)
Property: plant injury at 125 g/ha; scope: individual compounds
Dear colleague, please return just the value in %, with no unit written.

# count of solved cases: 3
[[record]]
compound = "C=CCOC(=O)c1c(Br)cccc1Oc1ncc(Cl)cn1 [Compound 22]"
endpointname = "plant injury at 125 g/ha"
valuemeasured = 30

[[record]]
compound = "CCCOC(=O)c1c(Br)cccc1Oc1ncc(Cl)cn1 [Compound 13]"
endpointname = "plant injury at 125 g/ha"
valuemeasured = 30

[[record]]
compound = "C=CCCOC(=O)c1c(Br)cccc1Oc1ncc(Cl)cn1 [Compound 21]"
endpointname = "plant injury at 125 g/ha"
valuemeasured = 30


Let us move to another entry and its plant injury at 125 g/ha.
In plain terms, Cc1ccc(Oc2ncc(Cl)cn2)c(C(=O)OCCC(F)(F)F)c1 [Compound 54] has a documented plant injury at 125 g/ha of 0

###

Property: pest or weed control at 125 g/ha; scope: individual molecules
Tested on: galium (catchweed bedstraw, Galium aparine)
procedureText: Test A postemergence, visual injury rating
Format: in vivo
assaySetup: Galium, post-emergence, 240 h, 125 g ai/ha, 0 is no effect, 100 is complete control, read-out: Galium plant response rating (0 to 100 scale)
Dear colleague, please return just the value in %, with no unit written.

[[record]]
molecule = "C=CCCOC(=O)c1c(Br)cccc1Oc1ncc(Cl)cn1 [Compound 21]"
endpointname = "pest or weed control at 125 g/ha"
valuemeasured = 80


In plain terms, N#Cc1cccc(Oc2ncc(Cl)cn2)c1CCCCC(F)(F)F [Compound 73] has a documented pest or weed control at 125 g/ha of 100

In plain terms, O=C(OCCCC(F)(F)F)c1c(Br)cccc1Oc1ncc(Cl)cn1 [Compound 20] has a documented pest or weed control at 125 g/ha of 10

In plain terms, CCCOC(=O)c1c(Br)cccc1Oc1ncc(Cl)cn1 [Compound 13] has a documented pest or weed control at 125 g/ha of 100
